# Assay info: Leishmania major promastigote growth inhibition, primary screen (AID 1063);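 further: promastigotes grown with compound for 44 hours at 28 °C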
# Experimental setup: Leishmania major promastigotes, resazurin fluorescence viability; at 10 µM; active compounds read high
Among all 200,000 compounds or so, about 18,000 (9%) were called active. Many of the other results were omitted from the sample, so actives are more common in it than they were.
Observed property: inhibition (%)
Quick note: give the figure in %, leave out the unit.

Q: Dear colleague, I am looking for the recorded inhibition of the following compound: Cc1ccc(-c2n[nH]c(=S)n2/N=C/c2cc3c(cc2[N+](=O)[O-])OCO3)cc1
A: -0.37

Q: Fill in: inhibition of COc1ccc(C(CCNCc2ccccc2F)c2ccc(F)cc2)cc1 (centres undefined) is ___
A: 78.9

Q: Quick check: inhibition of COCCOC(=O)C1=C(C)Nc2nc(C)nn2C1c1ccccc1 (centres undefined) ?
A: 1.25

Q: Could you tell me which inhibition is on file for CCCCCOC(=O)C1=C(C)Nc2nnnn2C1c1ccc(OC)c(OC)c1OC (centres undefined) ?
A: 92.7

Q: Look up inhibition for this compound: Cc1c(CCO)sc[n+]1CC(=O)OC12CC3CC(CC(C3)C1)C2
A: 30.7

Q: Suppose we examine the compound O=[N+]([O-])c1ccccc1/C=N/n1c(COc2ccccc2)n[nH]c1=S ; what inhibition value has been reported?
A: -4.75

Q: Look at this compound and give its reported inhibition. Cc1nn(CC#N)c(=O)n1N(C)c1ncc(C(F)(F)F)cc1Cl
A: -6.01

Q: Entry under review: COCCn1c(C)cc(C(=O)CSc2ncnc3sc4c(c23)CCC4)c1C . Reported inhibition?
A: -5.34

Q: For the compound COCc1ccc(C(=O)N2CCc3c([nH]c4ccccc34)C2c2ccccn2)s1 (centres undefined) , what inhibition is on record?
A: 13.5

Q: Name the reported inhibition value associated with the compound CCC(O)CNc1nc(-n2nc(C)cc2C)nc2sc3c(c12)CC(C)(C)OC3 (centres undefined)
A: 9.97

Q: Reported inhibition, compound CC1(C)CC(=O)CC2(C1)NCC(c1ccccc1Cl)c1c2[nH]c2ccccc12 (centres undefined) : ____
A: 53.5

Q: Given the entry CCOC(=O)c1c(NC(=O)C2CCN(S(=O)(=O)c3ccc(Cl)cc3)CC2)sc2c1CCCC2 , report its measured inhibition.
A: 6.41

Q: Fill in the blank: the reported inhibition of COc1ccc(C(=O)NC(=S)Nc2ccc(Cl)cn2)cc1OC is ____.
A: -4.99

Q: Would you mind telling me what inhibition value was observed for Cc1ccc(N(NC(=O)C(C)(C)O)C(=O)c2ccccc2)cc1C ?
A: -3.54

Q: Would you kindly share the measured inhibition for COc1ccc(CC(=O)NC(C)CCc2ccccc2)cc1 (centres undefined) ?
A: -3.88

Q: Endpoint output: inhibition of Oc1cccc(C2c3[nH]c4ccccc4c3CCN2Cc2cnn(-c3ccccc3)c2)c1 (centres undefined) . Value?
A: -0.63

Q: Looking for the measured inhibition of Cc1ccc2nc(-c3ccc(NC(=O)c4cccnc4)cc3)oc2c1 , can you help?
A: -5.33

Q: What value of inhibition has been recorded for this entry: COc1ccc([N+](=O)[O-])cc1C1NN=C(c2cccc3ccccc23)S1 (centres undefined)
A: -6.23

Q: Quick one: inhibition of COc1ccc(C(CC(=O)O)NC(=O)Cc2ccccc2)cc1 (centres undefined) ?
A: -6.94

Q: Would you kindly share the measured inhibition for c1ccc(C2c3[nH]c4ccccc4c3CCN2Cc2cccn2-c2cccnc2)nc1 (centres undefined) ?
A: 0.1

Q: Quick check: inhibition of O=C(N/N=C/c1ccco1)c1ccc(NC(=O)C2CC2)cc1 ?
A: 5.98

Q: May I ask what inhibition has been recorded for O=c1[nH]c(CN2CCN(S(=O)(=O)c3ccc4c(c3)OCCO4)CC2)nc2sc3c(c12)CCCC3 ?
A: 26.5

Q: What measured inhibition goes with Cc1cc(C)n(-c2nc(SCC(=O)N3CCCC3)c3c4c(sc3n2)CCCC4)n1 ?
A: 63.1

Q: Endpoint output: inhibition of CC(C)OC(=O)Cn1nc(C(F)(F)F)c2c1CCCC2 . Value?
A: -5.66

Q: Find the recorded inhibition belonging to CC(C)(O)C(=O)NN(C(=O)c1ccccc1)c1cccc(Br)c1 and report it.
A: 3.6

Q: What inhibition value was documented for this compound, CCCC(O)(CCC)C(=O)NN(C(=O)CCl)c1cccc(C)c1 ?
A: 82.9

Q: Looking for the measured inhibition of CC(=O)Nc1ccc(Nc2c3ccccc3nc3ccccc23)cc1 , can you help?
A: 101

Q: Field request: inhibition | item: CCOc1ccc(-c2n[nH]c(=S)n2/N=C/c2cc3c(cc2[N+](=O)[O-])OCO3)cc1
A: 52.8

Q: Can you look up the measured inhibition of CC1(C)C2CC=C(/C=N/NC(=O)C3CC3)C1C2 (centres undefined) for me?
A: 99.3

Q: Which inhibition reading was recorded for the compound COc1ccccc1CN(C)c1nnnn1-c1ccccc1 ?
A: 6.46

Q: If you can, please state the reported inhibition value of Cc1nn(CC2CC2)c(=O)n1N(C)c1ncc(C(F)(F)F)cc1Cl .
A: 74.1

Q: Look up inhibition: O=C(O)CCCCOn1ccnc1
A: -5.36

Q: Entry under review: CC(=O)Nc1ccc(Nc2c([N+](=O)[O-])cc(S(C)(=O)=O)cc2[N+](=O)[O-])cc1 . Reported inhibition?
A: 10.8

Q: // inhibition lookup, key: Cc1nc2sc3c(c2c(=O)n1NC(=O)CCl)CCCC3
A: -0.99

Q: Item under review: CCOc1ccc(C2c3[nH]c4ccccc4c3CCN2Cc2cn(CC)nc2C)cc1 (centres undefined) . Reported inhibition?
A: 64.3

Q: Bench note: what inhibition did COc1ccc(C2c3[nH]c4ccccc4c3CCN2CCCn2cccn2)cc1C (centres undefined) show?
A: 16.8

Q: Which inhibition value is on record for CCc1nnc(NC(=O)Cc2cccs2)s1 ?
A: -5.86

Q: Name the recorded inhibition for CC(C)(C)C(=O)Nc1ccc(C(=O)N/N=C/c2ccccc2OC(=O)c2ccc(Cl)cc2Cl)cc1 .
A: 40.8

Q: // query inhibition value for entry S=C(Cc1ccc(Cl)cc1)N1CCOCC1
A: 1.84

Q: // inhibition lookup, key: Cc1c(CCOC(=O)CC23CC4CC(CC(C)(C4)C2)C3)sc[n+]1Cc1ccc([N+](=O)[O-])cc1
A: 87.9

Q: For the compound shown here, O=C(Nc1ccc(F)c([N+](=O)[O-])c1)C1CC(=O)N(Cc2ccccc2)C1 (centres undefined) , give the reported inhibition.
A: 8.12

Q: For the compound shown here, C(=N\N1CCN(c2ccccn2)CC1)/C1=C(N2CCOCC2)C(=C/c2ccccc2)/CC1 , give the reported inhibition.
A: 15.2

Q: Looking for the measured inhibition of O=C(O)c1ccc2c3c(cccc13)C(=O)N(OS(=O)(=O)c1ccccc1)C2=O , can you help?
A: -8.08

Q: Look at this compound and give its reported inhibition. CCCCOc1ccc(C(C)(O)CCN2CCOCC2)cc1 (centres undefined)
A: 67.4
